target: human IL13 (human, UniProt P35225 35-146, biotinylated in the SPR assays (sites not given)); experiment: cell-based or functional assay
Sequence (P35225 other isoform, or with tags, fused parts or gaps limits assumed): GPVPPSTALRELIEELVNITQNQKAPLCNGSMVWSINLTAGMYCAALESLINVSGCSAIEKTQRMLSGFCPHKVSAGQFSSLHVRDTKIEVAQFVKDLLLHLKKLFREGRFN
Test readout: HEK Stat6 human IL13 IC50 (pM)
Write the answer as a number in pM, unit excluded.

Can you look up the measured HEK Stat6 human IL13 IC50 of C06_28E5_V1_C01_6G9_V1 (designed binder, bispecific IL4/IL13 ankyrin repeat protein with (GGGGS)4 linker; also called bispecific AR protein) DLGKKLLEAARAGQDDEVRILMANGADVNAADDSGITPLHLAAEDGHLEIVEVLLKAGADVNAQDNLGDTPLHLAAWTGHLEIVEVLLKAGADVNAYDISGITPLHLAAFYGHLEIVEVLLKHGADVNAQDKFGKTAFDISIDNGNEDLAEILQKLNGGGGSGGGGSGGGGSGGGGSDLDKKLLEAARAGQDDEVRILMANGADVNARDSYGSTPLHLAAREGHLEIVEVLLKYGADVNAADFIGDTPLHLAAYRGHLEIVEVLLKYGADVNASDITGETPLHLAAQIGHLEIVEVLLKHGADVNAQDKFGKTAFDISIDNGNEDLAEILQKLN for me?
19
